Activity values for the molecules below.
target: UniProtKB Q01726; assay: Agonist activity at human MC1R expressed in HEK293 cells assessed as increase in intracellular cAMP level at 10 uM after 3 mins by luminescence counter relative to Ac-Nle-c[Asp-His-D-Phe-Arg-Trp-Lys]-NH2; type: functional, cell-based
Sequence (Q01726 whole entry, looked up): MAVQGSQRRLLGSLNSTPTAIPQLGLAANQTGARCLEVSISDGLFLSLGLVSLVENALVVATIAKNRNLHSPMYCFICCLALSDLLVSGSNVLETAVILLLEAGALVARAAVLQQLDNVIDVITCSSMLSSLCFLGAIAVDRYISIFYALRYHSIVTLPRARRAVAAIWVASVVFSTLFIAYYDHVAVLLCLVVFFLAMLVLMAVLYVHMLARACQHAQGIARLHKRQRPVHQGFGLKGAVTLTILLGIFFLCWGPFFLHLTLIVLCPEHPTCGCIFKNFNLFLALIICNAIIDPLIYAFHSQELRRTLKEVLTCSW
Positions of bridges follow the written chain, without caps; N, C: chain ends. Non-standard residues stand in square brackets, D forms with d. Residues, ends and D or L forms follow the SMILES beside them. 2Nal = N[C@@H](Cc1ccc2ccccc2c1)C(=O)O

Solved entries (count: 3):
C[C@@H]1NC(=O)[C@H](Cc2cnc[nH]2)NC(=O)[C@@H](Cc2ccccc2)NC(=O)[C@H](Cc2c[nH]c3ccccc23)NC(=O)[C@H](CCCNC(=N)N)NC(=O)CC[C@@H](C(N)=O)NC(=O)[C@H](Cc2ccccc2)NC1=O (RW[dF]HAFE-NH2; lactam N-7): 0%
CC(=O)N[C@H]1CC(=O)NCCCC[C@@H](C(N)=O)NC(=O)[C@@H](CCCNC(=N)N)NC(=O)[C@H](Cc2ccccc2)NC(=O)[C@H](Cc2c[nH]c3ccccc23)NC(=O)[C@H](CCCNC(=N)N)NC1=O (Ac-DRWF[dR]K-NH2; lactam 1-6): 0%
C[C@@H]1NC(=O)[C@@H](CCC(N)=O)NC(=O)[C@H](Cc2ccccc2)NC(=O)[C@H](Cc2c[nH]c3ccccc23)NC(=O)[C@H](CCCNC(=N)N)NC(=O)CC[C@@H](C(N)=O)NC(=O)[C@H](Cc2ccccc2)NC1=O (RWF[dQ]AFE-NH2; lactam N-7): 0%

Now let's try a different one.
[Q] Look up Activity: C[C@@H]1NC(=O)[C@@H](CC(N)=O)NC(=O)[C@H](Cc2ccc3ccccc3c2)NC(=O)[C@H](Cc2c[nH]c3ccccc23)NC(=O)[C@H](CCCNC(=N)N)NC(=O)CC[C@@H](C(N)=O)NC(=O)[C@H](Cc2ccccc2)NC1=O (RW[2Nal][dN]AFE-NH2; lactam N-7)
[A] 0%
